Data provenance is ChEMBL document CHEMBL5058577.

System: HEK-293T
Assay: Multiplex assay against HEK293T
Format: toxicity, cell-based
Details: human, 24 h, 1 µM, compound concentration 1 uM, replicate 2
Threshold check on Population Mitochondria Different-Phenotype (%): strictly below 40% is class 1; on or above 40% is class 0.

# MOLECULE, DISCRETE LABEL
data = [
    ("CN1CCN2c3ncccc3Cc3ccccc3C2C1 (stereo unspecified)", "class 0"),
    ("c1cc(OCCCN2CCCCC2)ccc1CN1CCCCC1", "class 1"),
    ("N#Cc1c(N)nc(SCc2csc(-c3ccc(Cl)cc3)n2)c(C#N)c1-c1ccc(OCCO)cc1", "class 0"),
    ("Cc1ccc(/C(=C\\CN2CCCC2)c2ccccn2)cc1", "class 1"),
    ("CN1CCN(c2nc3cc(C(F)(F)F)ccc3n3cccc23)CC1.O=C(O)/C=C\\C(=O)O.O=C(O)/C=C\\C(=O)O", "class 0"),
    ("CC(C)(C)c1ccc(S(=O)(=O)Nc2ccc(Cl)cc2C(=O)c2cc[n+]([O-])cc2)cc1", "class 1"),
    ("Cc1ccc(-c2ccc(F)cc2COc2ccc(CCC(=O)O)cc2)cc1", "class 1"),
    ("Cc1ccc(C(C)(O)c2nc3ccccc3s2)c(C)c1 (stereo unspecified)", "class 1"),
    ("C[C@H]1[C@H]2CC[C@H]3[C@@H]4CC=C5C[C@@H](N(C)C)CC[C@]5(C)[C@H]4CC[C@]23CN1C", "class 1"),
    ("O=S(=O)(c1ccccc1)c1cnc2c(N3CCNCC3)cccc2c1 [INTEPIRDINE]", "class 0"),
    ("Cc1ccc(F)cc1C(=O)Nc1ccc(C(=O)N2Cc3cccn3Cc3ccccc32)c(Cl)c1", "class 0"),
    ("COc1cc(C(=O)N(CCCc2ccccc2)Cc2ccc(CC(=O)O)cc2)cc(OC)c1C", "class 1"),
    ("CCCn1c(=O)c2[nH]c(C3CCCC3)nc2n(CCC)c1=O", "class 0"),
    ("C[C@@H]1C[C@H]2[C@@H]3CCC4=CC(=O)C=C[C@]4(C)[C@@]3(F)[C@@H](O)C[C@]2(C)[C@@]1(O)C(=O)CO", "class 0"),
    ("Cc1nc2ccc(Oc3ccc(F)cc3)cc2c(=O)n1C[C@H]1CCCN(C(C)C)C1.Cl", "class 0"),
    ("Cl.Clc1ccc2nsnc2c1NC1=NCCN1 [TIZANIDINE HYDROCHLORIDE]", "class 1"),
    ("O=C(NCCO)c1cccc(-c2cc(Nc3ccc(OC(F)(F)F)cc3)ncn2)c1", "class 1"),
    ("CN(C)CCCc1cc(C(=O)Nc2ccc(-c3ccncc3)cc2)ccc1O.Cl.Cl", "class 1"),
    ("CCCC(CCC)C(=O)O", "class 1"),
    ("CN(C)c1ccnc2sc3c(=O)n(N4CCCCCC4)cnc3c12", "class 0"),
    ("CCOc1c2c(c(OCC)c3ncccc13)CN(c1ccc(CS(=O)(=O)NC(=O)Cc3ccccc3OC)cc1C)C2=O", "class 1"),
    ("COc1ccc2c(c1)C(C(=O)N(Cc1ccc(N(C)C)cc1)c1ccc(C(C)C)cc1)CCC2.Cl (stereo unspecified)", "class 1"),
    ("O=C(NCC(=O)N1CC[C@H](N[C@H]2CC[C@@](O)(c3ccc(-c4ncccn4)cn3)CC2)C1)c1cccc(C(F)(F)F)c1", "class 1"),
    ("CCNC1(C(N)=O)CCN(c2ncnc3c2nc(-c2ccccc2Cl)n3-c2ccc(Cl)cc2)CC1", "class 0"),
    ("CSCC[C@H](NC=O)C(=O)N[C@@H](CC(C)C)C(=O)N[C@@H](Cc1ccccc1)C(=O)O", "class 1"),
    ("CC[C@H]1OC(=O)[C@H](C)[C@@H](O[C@H]2C[C@@](C)(OC)[C@@H](O)[C@H](C)O2)[C@H](C)[C@@H](O[C@@H]2O[C@H](C)C[C@H](N(C)C)[C@H]2O)[C@@]2(C)CC(C)=C(O2)[C@H](C)[C@@H](O)[C@]1(C)O", "class 0"),
    ("CSc1ccccc1N1CCN(CCCCCC(=O)NC2CCCc3ccccc32)CC1.Cl (stereo unspecified)", "class 0"),
    ("COc1cc(NC(=O)CCN2CCC(OC(=O)Nc3ccccc3-c3ccccc3)CC2)c(Cl)cc1CNC[C@H](O)c1ccc(O)c2[nH]c(=O)ccc12", "class 0"),
    ("Cc1ccccc1C(=O)Nc1ccc(C(=O)N2CCCC(N(C)C)c3ccccc32)cc1.Cl (stereo unspecified)", "class 0"),
    ("C[C@H](NC(=O)c1c(C(F)F)nn(C)c1Oc1cccc(C(F)(F)F)c1)c1ccc(C(=O)O)cc1", "class 1"),
    ("CCCN1CCC[C@@H]2Cc3n[nH]cc3C[C@H]21.Cl [QUINPIROLE HYDROCHLORIDE]", "class 1"),
    ("CC(=O)NCCc1c(Cc2ccccc2)[nH]c2ccccc12", "class 0"),
]
